Literature-derived Ki for 5-hydroxytryptamine receptor 4 (Homo sapiens, UniProt Q13639) follows.
property-measured: Ki (nM)

- smiles-text: "CCCCN1CCC(COC(=O)c2cc(Cl)c(N)c3c2OCCO3)CC1"
  measurement-units: "nM"
  assay-value: 0.1
- smiles-text: "CC1CCN(CC[C@H]2CCCN2S(=O)(=O)c2ccc(Cl)c(Cl)c2)CC1"
  measurement-units: "nM"
  assay-value: 3160
- smiles-text: "Nc1c(Cl)cc(-c2nn(C3CCN(CCc4ccccc4)CC3)c(=O)o2)c2c1OCCO2"
  measurement-units: "nM"
  assay-value: 0.6
- smiles-text: "COc1[nH]c2ccc(F)cc2c1C(=O)OCC1CCN(CCNS(C)(=O)=O)CC1"
  measurement-units: "nM"
  assay-value: 0.15
